Just for reference, ChEMBL document CHEMBL3351889 is where these values come from.

Assay system: Transient receptor potential cation channel subfamily V member 1 (Rattus norvegicus)
Sequence (O35433 whole entry, looked up): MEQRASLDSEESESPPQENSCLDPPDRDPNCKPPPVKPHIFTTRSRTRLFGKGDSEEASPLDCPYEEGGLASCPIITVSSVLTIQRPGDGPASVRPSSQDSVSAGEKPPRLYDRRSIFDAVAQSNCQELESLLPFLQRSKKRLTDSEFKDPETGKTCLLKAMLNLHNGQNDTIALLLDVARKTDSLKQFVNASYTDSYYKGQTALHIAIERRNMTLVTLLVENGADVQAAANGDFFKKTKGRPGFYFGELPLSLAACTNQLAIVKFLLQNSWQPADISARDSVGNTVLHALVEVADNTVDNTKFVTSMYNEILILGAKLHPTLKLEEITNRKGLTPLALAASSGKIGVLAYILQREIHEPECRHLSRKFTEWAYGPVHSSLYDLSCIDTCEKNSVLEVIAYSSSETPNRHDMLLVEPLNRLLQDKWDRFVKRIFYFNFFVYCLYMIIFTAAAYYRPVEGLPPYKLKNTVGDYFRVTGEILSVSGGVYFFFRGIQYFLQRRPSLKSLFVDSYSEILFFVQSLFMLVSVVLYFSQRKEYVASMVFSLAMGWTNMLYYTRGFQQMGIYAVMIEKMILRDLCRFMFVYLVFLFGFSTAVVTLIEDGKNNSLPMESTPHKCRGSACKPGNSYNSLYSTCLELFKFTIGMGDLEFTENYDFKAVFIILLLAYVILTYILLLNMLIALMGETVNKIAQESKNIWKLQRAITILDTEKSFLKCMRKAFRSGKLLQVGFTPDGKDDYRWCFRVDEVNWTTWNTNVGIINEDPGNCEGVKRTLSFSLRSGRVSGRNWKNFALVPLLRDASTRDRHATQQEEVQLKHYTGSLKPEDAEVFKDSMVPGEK
Assay notes: Antagonist activity at rat TRPV1 expressed in HEK293 cells assessed as inhibition of capsaicin-induced Ca2+ influx
pIC50: −log10 of the molar value.
Measured quantity: pIC50

Mol smiles: O=C(O)c1ccc(S(=O)(=O)N(Cc2ccc(OC(F)(F)F)cc2)c2ncc(C(F)(F)F)cc2Cl)cc1
Assay system: Transient receptor potential cation channel subfamily V member 1 (Rattus norvegicus)
Measured quantity: pIC50
Result: < 5.52

---

Assay notes: Intrinsic clearance in human liver microsomes
Format: ADME
Reported conditions: read-out: CLH

Mol smiles: CN(C)C(=O)c1ccc(S(=O)(=O)N(Cc2ccccc2)c2ncc(C(F)(F)F)cc2Cl)cc1
CLint scaled: > 168 mL/min/kg
//
Mol smiles: O=C(O)c1ccc(S(=O)(=O)N(Cc2ccc(OC(F)(F)F)cc2)c2ncc(C(F)(F)F)cc2Cl)cc1
CLint scaled: < 7 mL/min/kg
//
Mol smiles: O=C(O)c1ccc(S(=O)(=O)N(Cc2cccc(C(F)(F)F)c2)c2ncc(C(F)(F)F)cc2Cl)cc1
CLint scaled: < 7 mL/min/kg
//
Mol smiles: O=C(O)c1ccc(S(=O)(=O)N(CCCc2ccccc2)c2ncc(C(F)(F)F)cc2Cl)cc1
CLint scaled: 81 mL/min/kg
//
Mol smiles: Cc1c(N(Cc2ccc(C(F)(F)F)c(F)c2)S(=O)(=O)c2ccc(C(=O)O)cc2)sc2ccccc12
CLint scaled: 8.5 mL/min/kg
//
Mol smiles: O=S(=O)(c1ccc(CO)cc1)N(Cc1ccccc1)c1ncc(C(F)(F)F)cc1Cl
CLint scaled: > 168 mL/min/kg
//
Mol smiles: O=C(O)c1ccc(S(=O)(=O)N(Cc2ccc(C(F)(F)F)cc2)c2ncc(Cl)cc2Cl)cc1
CLint scaled: < 7 mL/min/kg
//
Mol smiles: O=C(O)c1ccc(S(=O)(=O)N(Cc2ccccc2OC(F)(F)F)c2ncc(C(F)(F)F)cc2Cl)cc1
CLint scaled: < 7 mL/min/kg
//
Mol smiles: O=C(O)c1ccc(S(=O)(=O)N(Cc2ccccc2)c2ncc(C(F)(F)F)cc2Cl)cc1
CLint scaled: < 7 mL/min/kg
//
Mol smiles: O=C(O)c1ccc(S(=O)(=O)N(CCN2CCOCC2)c2ncc(C(F)(F)F)cc2Cl)cc1
CLint scaled: < 7 mL/min/kg

---

Assay notes: Oral bioavailability in rat at 3 mg/kg
Format: ADME, organism-based
Reported conditions: in vivo
Measured quantity: bioavailability (%)

Mol smiles: O=C(O)c1ccc(S(=O)(=O)N(Cc2ccc(OC(F)(F)F)cc2)c2ncc(C(F)(F)F)cc2Cl)cc1
Measured quantity: bioavailability
Result: 86

---

Reported solubility thermodynamic values for a set of compounds
Assay notes: Equilibrium solubility of the compound
Assay type: physicochemical
Measured quantity: solubility thermodynamic (µM)

Mol smiles: O=C(O)c1ccc(S(=O)(=O)N(Cc2ccccc2)c2ncc(C(F)(F)F)cc2Cl)cc1
Unit descriptor: µM
Result: 185
//
Mol smiles: O=S(=O)(c1ccc(CO)cc1)N(Cc1ccccc1)c1ncc(C(F)(F)F)cc1Cl
Unit descriptor: µM
Result: 35
//
Mol smiles: CN(C)C(=O)c1ccc(S(=O)(=O)N(Cc2ccccc2)c2ncc(C(F)(F)F)cc2Cl)cc1
Unit descriptor: µM
Result: 37

---

Assay system: Transient receptor potential cation channel subfamily M member 8 (Homo sapiens)
Sequence (Q7Z2W7 whole entry): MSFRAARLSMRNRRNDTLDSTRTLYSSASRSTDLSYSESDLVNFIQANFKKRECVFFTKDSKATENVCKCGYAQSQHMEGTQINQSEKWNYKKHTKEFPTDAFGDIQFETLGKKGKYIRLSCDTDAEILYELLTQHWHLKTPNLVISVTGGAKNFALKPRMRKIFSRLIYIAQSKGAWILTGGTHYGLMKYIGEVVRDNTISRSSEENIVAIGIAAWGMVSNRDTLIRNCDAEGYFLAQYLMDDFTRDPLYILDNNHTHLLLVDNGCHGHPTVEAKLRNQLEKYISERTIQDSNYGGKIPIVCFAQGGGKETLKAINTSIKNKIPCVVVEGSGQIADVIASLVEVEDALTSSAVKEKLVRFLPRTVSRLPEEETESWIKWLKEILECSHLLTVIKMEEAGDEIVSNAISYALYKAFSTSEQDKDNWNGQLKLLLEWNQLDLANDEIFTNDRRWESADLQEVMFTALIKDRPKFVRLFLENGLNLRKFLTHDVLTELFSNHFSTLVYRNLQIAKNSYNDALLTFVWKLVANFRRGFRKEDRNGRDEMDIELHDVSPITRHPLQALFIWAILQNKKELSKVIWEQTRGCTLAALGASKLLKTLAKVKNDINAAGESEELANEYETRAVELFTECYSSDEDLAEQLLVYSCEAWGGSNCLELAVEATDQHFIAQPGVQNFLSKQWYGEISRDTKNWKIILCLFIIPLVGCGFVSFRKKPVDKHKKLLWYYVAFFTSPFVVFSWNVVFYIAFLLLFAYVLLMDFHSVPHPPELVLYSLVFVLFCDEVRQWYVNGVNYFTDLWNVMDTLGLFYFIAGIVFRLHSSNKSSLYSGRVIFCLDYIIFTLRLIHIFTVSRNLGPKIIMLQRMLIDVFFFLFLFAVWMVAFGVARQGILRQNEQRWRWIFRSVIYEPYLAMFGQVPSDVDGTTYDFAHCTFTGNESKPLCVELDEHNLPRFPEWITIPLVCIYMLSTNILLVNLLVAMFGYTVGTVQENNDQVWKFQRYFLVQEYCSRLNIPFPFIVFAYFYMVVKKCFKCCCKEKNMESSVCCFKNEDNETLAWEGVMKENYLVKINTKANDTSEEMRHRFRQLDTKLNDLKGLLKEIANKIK
Assay notes: Antagonist activity at human TRPM8 expressed in HEK293 cells assessed as inhibition of menthol induced Ca2+ influx
pIC50: −log10 of the molar value.
# binarize pIC50: threshold 7 inclusive, high side met, low side not met

Mol smiles: O=C(O)c1ccc(S(=O)(=O)N(CCc2ccccc2)c2ncc(C(F)(F)F)cc2Cl)cc1
Assigned label: not met
//
Mol smiles: O=C(O)c1ccc(S(=O)(=O)N(Cc2ccccc2)c2ncccc2Cl)cc1
Assigned label: not met
//
Mol smiles: O=C(O)c1ccc(S(=O)(=O)N(Cc2ccc(OC(F)(F)F)cc2)c2ncc(C(F)(F)F)cc2Cl)cc1
Assigned label: met
//
Mol smiles: O=C(O)c1ccc(S(=O)(=O)N(CCCc2ccccc2)c2ncc(C(F)(F)F)cc2Cl)cc1
Assigned label: met
//
Mol smiles: N#Cc1cc(C(F)(F)F)cnc1N(Cc1ccccc1)S(=O)(=O)c1ccc(C(=O)O)cc1
Assigned label: not met
//
Mol smiles: O=C(O)c1ccc(S(=O)(=O)N(Cc2cccc(C(F)(F)F)c2)c2ncc(C(F)(F)F)cc2Cl)cc1
Assigned label: met
//
Mol smiles: O=S(=O)(c1ccc(CO)cc1)N(Cc1ccccc1)c1ncc(C(F)(F)F)cc1Cl
Assigned label: met
//
Mol smiles: Cc1cc(C(F)(F)F)cnc1N(Cc1ccccc1)S(=O)(=O)c1ccc(C(=O)O)cc1
Assigned label: not met
//
Mol smiles: Cc1c(N(Cc2ccc(C(F)(F)F)c(F)c2)S(=O)(=O)c2ccc(C(=O)O)cc2)sc2ccccc12
Assigned label: met
//
Mol smiles: O=C(O)c1ccc(S(=O)(=O)N(Cc2ccc(C(F)(F)F)cc2)c2ncc(Cl)cc2Cl)cc1
Assigned label: met
//
Mol smiles: O=C(O)c1ccc(S(=O)(=O)N(CCN2CCOCC2)c2ncc(C(F)(F)F)cc2Cl)cc1
Assigned label: not met
